All figures here come from patent US20240270821A1.

Biological target: human GcgR (Homo sapiens)
Sequence (P47871 26-477): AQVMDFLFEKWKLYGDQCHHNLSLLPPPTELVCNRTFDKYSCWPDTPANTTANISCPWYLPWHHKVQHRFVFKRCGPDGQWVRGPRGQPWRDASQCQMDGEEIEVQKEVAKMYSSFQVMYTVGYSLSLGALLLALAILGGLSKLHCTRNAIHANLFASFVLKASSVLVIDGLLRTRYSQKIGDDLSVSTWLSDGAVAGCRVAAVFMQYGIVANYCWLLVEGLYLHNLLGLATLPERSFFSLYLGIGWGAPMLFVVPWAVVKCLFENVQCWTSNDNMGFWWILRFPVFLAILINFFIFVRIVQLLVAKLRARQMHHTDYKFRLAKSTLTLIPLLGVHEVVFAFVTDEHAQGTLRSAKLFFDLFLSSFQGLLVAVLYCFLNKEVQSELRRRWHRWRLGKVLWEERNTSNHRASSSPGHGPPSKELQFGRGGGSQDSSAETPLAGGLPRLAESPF
Test: Functional cAMP activity in the presence of 1% HSA
Type: cell-based
Conditions: read-out: cAMP Rel EC50, hGcgR
Starred links: 1 amine or outer side, 2 acyl side, 3 side chain; linkers in the order of their positions; H or OH if unused. Non-standard residues stand in square brackets, D forms with d. Groups on a side chain read outwards from the residue. No end group written: not given here. *: point of attachment. C20 diacid = O=C(O)CCCCCCCCCCCCCCCCCCC(=O)*; C18 diacid = O=C(O)CCCCCCCCCCCCCCCCC(=O)*; γGlu = O=C(O)[C@H](CCC(=O)[*:2])N[*:1]; αMe4Pal = C[C@](N)(Cc1ccncc1)C(=O)O; αMeY = C[C@](N)(Cc1ccc(O)cc1)C(=O)O; 4Pal = N[C@@H](Cc1ccncc1)C(=O)O; αMeL = CC(C)C[C@](C)(N)C(=O)O; Orn = NCCC[C@H](N)C(=O)O; AEEA = NCCOCCOCC(=O)O; Aib = CC(C)(N)C(=O)O
assay-endpoint: EC50 (nM)
Give the quantity in nM, number only.

substance | EC50, nM
H-Y[Aib]QGTFTSDFS[Orn][αMeL]LDKK([AEEA-γGlu-C20 diacid])AQ[Aib]AFIEYLLE[Aib]GPSSGAPPPSEG-NH2 [Example 61] | 1310
H-Y[Aib]QGTFTSD[4Pal]SQ[αMeL]LDKK([γGlu-γGlu-C18 diacid])AQ[αMe4Pal]AFIEYLIAGGPSSGEPPPSGS-NH2 [Example 968] | 625
Y[Aib]QGTFTSD[4Pal]SQ[αMeL]LDKK([dE-dE-γGlu-C18 diacid])AQ[αMe4Pal]AFIEYLIE[Aib]GPSSGAPPPSGSE-NH2 [Example 925] | 2500

Next substance, EC50 to be filled in.
I would be grateful if you could share the reported EC50 for H-Y[Aib]QGTFTSD[4Pal]SQ[αMeL]LD[Orn]K([AEEA-γGlu-C18 diacid])AQ[Aib]AFIE[αMeY]LIEGGPSSGAPPPSGS-NH2 [Example 850] .
3660

====

Target: hGcgR (Homo sapiens, UniProt P47871)
Sequence (P47871 26-477): as the sequence (P47871 26-477) above
Assay: Functional cAMP activation in the presence of 0.1% casein (no HSA);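 further: intracellular cAMP rise after 30 min at 37 °C, read by HTRF against a cAMP standard curve, scaled from buffer only (0%) to maximal control ligand response (100%)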
Type: cell-based
Settings: in the presence of 0.1% casein (no HSA); geometric mean; read-out: Relative cAMP EC50, hGcgR
Starred links: 1 amine or outer side, 2 acyl side, 3 side chain; linkers in the order of their positions; H or OH if unused. Non-standard residues stand in square brackets, D forms with d. Groups on a side chain read outwards from the residue. No end group written: not given here. *: point of attachment. C18 diacid = O=C(O)CCCCCCCCCCCCCCCCC(=O)*; αMePhe(2-F) = C[C@](N)(Cc1ccccc1F)C(=O)O; γGlu = O=C(O)[C@H](CCC(=O)[*:2])N[*:1]; αMe4Pal = C[C@](N)(Cc1ccncc1)C(=O)O; αMeY = C[C@](N)(Cc1ccc(O)cc1)C(=O)O; 4Pal = N[C@@H](Cc1ccncc1)C(=O)O; αMeL = CC(C)C[C@](C)(N)C(=O)O; αMeS = C[C@](N)(CO)C(=O)O; Orn = NCCC[C@H](N)C(=O)O; AEEA = NCCOCCOCC(=O)O; Aib = CC(C)(N)C(=O)O
assay-endpoint: pEC50
Entry type: numeric. Quantity: pEC50, the -log10 of concentration in molar units.

Here is how some substances turned out for pEC50.
substance | pEC50
Y[Aib]QGTFTSD[4Pal]SK[αMeL]LDKK([AEEA-γGlu-C18 diacid])AQ[Aib]AFIEYLIE[Aib]GESSGEPPPSGE-NH2 [Example 281] | 7.86
H-Y[Aib]QGT[αMePhe(2-F)]TSD[4Pal][αMeS]I[αMeL]LD[Orn]K([AEEA-γGlu-C18 diacid])AQ[αMe4Pal]EFI[dE][αMeY]LIEGGPSSGEPPPEGE-NH2 [Example 1149] | 8.86
H-Y[Aib]QGTFTSD[4Pal]S[Orn][αMeL]LDKK([AEEA-γGlu-C18 diacid])AQ[αMe4Pal]AFIE[αMe4Pal]LIEGGPSSGAPPPSGS-NH2 [Example 949] | 8.79
H-Y[Aib]QGTFTSD[4Pal][αMeS]Q[αMeL]LD[Orn]K([dE-γGlu-C18 diacid])AQ[αMe4Pal]QFIQ[αMeY]LLE[Aib]GPSSGAPPPSGGGE-NH2 [Example 1138] | 9.00

Next substance, pEC50 to be filled in.
I would be grateful if you could share the reported pEC50 for H-Y[Aib]QGT[αMePhe(2-F)]TSD[4Pal][αMeS]I[αMeL]LD[Orn]K([AEEA-γGlu-C18 diacid])AQ[αMe4Pal]EFI[dE][αMeY]LVEGGPSSGAPPPGGE-NH2 [Example 1154] .
8.19
